tested on: CP265; assay: qHTS profiling for inhibitors of Plasmodium falciparum proliferation (AID 504749); also: nearly all actives have a fitted effect of over 60% in size; settings: P. falciparum in erythrocytes, SYBR Green DNA, 72 h; series mostly up to 28.7 µM
Records with an inconclusive call do not appear. Activity calls are given as the source filed them. Calls follow the shape of the dose curve; as a rule, active = well fitted inhibition curve with a large enough effect; inconclusive = small, poorly fitted or top-dose-only effect; inactive = flat fitted curve, though single readings scatter.
Respond using exactly one of the listed classes: active, inactive

## Input Give the logged outcome of this assay for the following molecule: N[C@H](Cc1ccc(O)c(O)c1)C(=O)O
## Output inactive

## Input Can you look up the reported call for CN1C(=O)CCC1c1cccnc1 (configuration not stated) for me?
## Output inactive

## Input Which outcome was assigned to CC(C)C[C@H]1C(=O)N2CCCC2[C@]2(O)O[C@](NC(=O)[C@@H]3C=C4c5cccc6[nH]c(Br)c(c56)C[C@H]4N(C)C3)(C(C)C)C(=O)N12 (some centres not stated) in this test?
## Output active

## Input # fetch the recorded call for C=C1/C(=C\C=C2/CCC[C@]3(C)[C@@H]([C@H](C)CCCC(C)(C)O)CC[C@@H]23)C[C@@H](O)C[C@@H]1O here
## Output inactive

## Input Please share the test call associated with CN=C(N)NCCCC(N)C(=O)O (configuration not stated) .
## Output inactive

## Input Record request — test call for C[C@@H]1[C@H](O)[C@@H](C)/C=C/C=C/C=C/C=C/C=C/C=C/C=C/[C@H](O[C@@H]2O[C@H](C)[C@@H](O)[C@H](N)[C@@H]2O)C[C@@H]2O[C@](O)(C[C@@H](O)C[C@@H](O)[C@H](O)CC[C@@H](O)C[C@@H](O)CC(=O)O[C@H]1C)C[C@H](O)[C@H]2C(=O)O
## Output inactive

## Input Record lookup: outcome of this test for C=C1CCC2[C@](C)(CO)C(O)CC[C@]2(C)C1C/C=C1/C(=O)OCC1O (some centres not stated) ?
## Output inactive
